The measurements presented in this section are drawn from patent US20090306214A1.

Procedure Summary: Viability of HL-60 cells after 3 days, XTT method
Format: cell-based, human
Test Settings: human, HL-60 cells, Pic 10 μM alone
Assay Readout: viability at 3 days, 10 μM (%)
Give a bare numeral; the unit % is implied.

Query :: Find the recorded viability at 3 days, 10 μM belonging to Oc1cc(O)cc(/C=C/c2ccc(O)c(O)c2)c1 [piceatannol, reference compound] and report it.
Result :: 89
